- assay_protocol: Metabolic stability in human liver microsome assessed as half life at 200 uM in presence of NADPH incubated for 24 hrs by HPLC-MS analysis
- Assay type: ADME
- test_settings: liver microsomes
experimental_endpoint: half-life at 200 µM (h)

1) C/C=C1\NC(=O)[C@@H](NC(=O)[C@H](CCC(N)=O)NC(=O)CCCCC)[C@@H](C)OC(=O)[C@H](C(C)C)NC(=O)[C@H](Cc2ccc(O)cc2)N(C)C(=O)[C@H](Cc2ccccc2)N2C(=O)[C@H](CC[C@H]2O)NC1=O [LYNGBYASTATIN 7] ... 2

----------
- assay_system: Neutrophil elastase (Homo sapiens)
- Sequence (P08246 whole entry): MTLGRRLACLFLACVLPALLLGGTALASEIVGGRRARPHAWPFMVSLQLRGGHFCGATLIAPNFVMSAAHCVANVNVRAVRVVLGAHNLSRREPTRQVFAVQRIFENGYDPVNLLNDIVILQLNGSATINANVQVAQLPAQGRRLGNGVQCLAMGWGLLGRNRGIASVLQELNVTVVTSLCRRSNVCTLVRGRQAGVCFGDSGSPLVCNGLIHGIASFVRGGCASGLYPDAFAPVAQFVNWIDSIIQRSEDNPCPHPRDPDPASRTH
- assay_protocol: Inhibition of human neutrophil elastase using N-(OMe-succinyl)-Ala-Ala-Pro-Val-p-nitroanilide as substrate incubated for 15 mins followed by substrate addition and measured for every 30 sec for 30 mins by spectrophotometry
pIC50: −log10 of the molar value.
experimental_endpoint: pIC50

1) C/C=C1\NC(=O)[C@@H](NC(=O)[C@H](CCC(N)=O)NC(=O)CC2CCCCC2)[C@@H](C)OC(=O)[C@H](C(C)C)NC(=O)[C@H](Cc2ccc(O)cc2)N(C)C(=O)[C@H](Cc2ccccc2)N2C(=O)[C@H](CC[C@H]2O)NC1=O ... 6.99
2) C/C=C1\NC(=O)[C@@H](NC(=O)[C@H](CCC(N)=O)NC(=O)CN2CCOCC2)[C@@H](C)OC(=O)[C@H](C(C)C)NC(=O)[C@H](Cc2ccc(O)cc2)N(C)C(=O)[C@H](Cc2ccccc2)N2C(=O)[C@H](CC[C@H]2O)NC1=O ... 6.71
3) C/C=C1\NC(=O)[C@@H](NC(C)=O)[C@@H](C)OC(=O)[C@H](C(C)C)NC(=O)[C@H](Cc2ccc(O)cc2)N(C)C(=O)[C@H](Cc2ccccc2)N2C(=O)[C@H](CC[C@H]2O)NC1=O ... 5.00
